Hello, the source for this data is patent US20260374754A1, in case you need it.

TARGET_SYSTEM: human activated kallikrein enzyme (Homo sapiens, UniProt P03952)
Sequence (P03952 391-638 limits assumed): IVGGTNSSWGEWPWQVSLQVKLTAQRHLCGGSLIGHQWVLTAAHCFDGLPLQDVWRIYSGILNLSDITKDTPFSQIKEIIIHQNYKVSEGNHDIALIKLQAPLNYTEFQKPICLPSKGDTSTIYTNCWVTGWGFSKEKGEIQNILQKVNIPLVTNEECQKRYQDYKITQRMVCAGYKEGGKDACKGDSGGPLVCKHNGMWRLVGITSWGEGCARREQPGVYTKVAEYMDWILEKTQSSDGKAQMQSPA
Sequence (P03952 20-390 partner limits assumed): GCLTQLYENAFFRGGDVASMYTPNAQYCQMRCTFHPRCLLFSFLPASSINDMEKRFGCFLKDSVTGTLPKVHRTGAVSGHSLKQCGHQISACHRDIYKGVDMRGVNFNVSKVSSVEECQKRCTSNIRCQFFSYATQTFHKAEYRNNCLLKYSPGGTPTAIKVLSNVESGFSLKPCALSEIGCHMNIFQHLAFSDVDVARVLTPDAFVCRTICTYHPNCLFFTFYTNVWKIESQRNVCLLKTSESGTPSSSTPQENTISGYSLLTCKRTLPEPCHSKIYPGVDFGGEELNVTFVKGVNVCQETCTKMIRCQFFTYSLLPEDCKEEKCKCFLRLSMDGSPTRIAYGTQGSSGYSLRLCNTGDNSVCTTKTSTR
EXPERIMENTAL_PROTOCOL: Inhibition of human activated plasma kallikrein, fluorogenic PFR-AMC substrate, 500 pM enzyme format
Assay type: biochemical
TEST_CONTEXT: 500 pM activated kallikrein; 300 μM PFR-AMC; 30 min preincubation; 10 min room temperature; pH 7.5; read-out: Primary Dose Response Assay: Average EC50
Protocol: Compounds were evaluated for inhibition of the human activated kallikrein enzyme in two formats of an assay employing a fluorogenic peptide substrate. […] After initiation with substrate, reactions were incubated for 10 min at room temperature and fluorescence emission at 460 nm from 380 nm excitation measured with a microplate reader. […]
QUANTITY_NAME: EC50

Some solved entries appear below for comparison.
- MOLECULE: "Cc1cc2c(N)nccc2c(C)c1CNC(=O)c1cnn(Cc2cn3c(C)c(C)ccc3n2)c1 [Example 136]"
  QUANTITY_NAME: "EC50"
  RESULT: "< 1 nM"
- MOLECULE: "Cc1cc2c(N)nccc2c(C)c1CNc1cc(N(C)Cc2ccc3ncccc3c2)cnn1 [Example 428]"
  QUANTITY_NAME: "EC50"
  RESULT: "1 to 10 nM"

Lookup result for Cc1cc2c(N)nccc2c(C)c1CNc1ccnc(OCc2ccc(Cn3cccn3)cc2)c1 [Example I-455] ; measured EC50: 1 to 10 nM

molecule Cc1cc(CNc2cc(NCc3c(C)cc4c(N)nccc4c3C)ncn2)cc(C)c1CC(=O)N(C)C [Compound 360] , EC50 observed: < 1 nM

Noted for Cc1cc2c(N)nccc2c(C)c1CNc1cc(NCc2ccc(Cn3cccn3)cc2)c(C(F)(F)F)nn1 [Example 451] : its EC50 reads < 1 nM

For this molecule ( Cc1cc2c(N)nccc2c(C)c1CNC(=O)c1cnn(Cc2cc3ccc(Cl)cc3s2)c1 [Example 81] ), measured EC50 is 1 to 10 nM

Consider Cc1cc2c(N)nccc2c(C)c1CNC(=O)c1cnn(Cc2sc3ccccc3c2Cl)c1 [Example 80] . Its measured EC50 is 100 to 1000 nM

Documented EC50 of Cc1cc2c(N)nccc2c(C)c1CNc1cc(OCc2ccc3ncc(C4CC4)cc3c2)cnn1 [Example 422] : < 1 nM

Data point: CCOC(=O)Nc1nccc2c(C)c(CNC(=O)c3cnn(Cc4ccc5ncc(Cl)cc5c4)c3)c(C)cc12 [Example 132] ; EC50 = 10 to 100 nM

# EC50 (molecule: Cc1cc2c(N)nccc2c(C)c1CNC(=O)c1cnn(Cc2ccc3cc(Cl)ccc3n2)c1 [Example 157] ) is 1 to 10 nM

Lab note: measured EC50 of COc1ccc2cc(Cn3cc(C(=O)NCc4c(C)cc5c(N)nccc5c4C)cn3)cnc2c1 [Example 110] was 1 to 10 nM

Form field EC50, entry Cc1cc2c(N)nccc2c(C)c1CNC(=O)c1cnn(Cc2ccc(CC(=O)N3CC4C(C3)C4(F)F)cc2)c1 (centres unmarked) [Example 214] : < 1 nM

The reported EC50 of the molecule Cc1cc2c(N)nccc2c(C)c1CNc1cnnc(OCc2ccc(Cn3cccn3)cc2)c1 [Example 530] was 10 to 100 nM

Lab book: EC50 of COc1cccc2nc(Cn3cc(C(=O)NCc4c(C)cc5c(N)nccc5c4C)cn3)cn12 [Example 144] noted as < 1 nM

# EC50 (molecule: Cc1cc2c(N)nccc2c(C)c1CNc1cc(NCc2ccc3c(-n4cccn4)cccc3c2)ncn1 [Example 246] ) is < 1 nM

Kindly note the recorded EC50 for Cc1cc2c(N)nccc2c(C)c1CNC(=O)c1cnn(Cc2ccc(CC(=O)N3CCCC3)cc2)c1 [Example 232] , which is < 1 nM

The recorded EC50 for Cc1cc2c(N)nccc2c(C)c1CNc1cc(OCc2cn3c(C)c(Cl)ccc3n2)ncn1 [Example 304] is < 1 nM

# molecule CCOC(=O)Nc1nccc2c(C)c(CNC(=O)c3cnn(Cc4cn5cc(C)ccc5n4)c3)c(C)cc12 [Example 9] ; its EC50 = 1 to 10 nM

Form field EC50, entry CC(=O)NC1(c2ccc(Cn3cc(C(=O)NCc4c(C)cc5c(N)nccc5c4C)cn3)cc2)CC1 [Example 19] : < 1 nM

What the record says about Cc1cc2c(N)nccc2c(C)c1CNc1cc(OCc2ccc3ncc(C(F)(F)F)cc3c2)cnn1 [Example 423] : EC50 is < 1 nM

The reported value for Cc1cc2c(N)nccc2c(C)c1CNC(=O)c1cnn(Cc2ccc3c(cnn3C)c2)c1 [Example 52] in terms of EC50 is 1 to 10 nM

// EC50 lookup, molecule = Cc1cc2c(N)nccc2c(C)c1CNc1cc(NCc2cn3cc(C4CC4)ccc3n2)ncn1 [Example 331] , result: < 1 nM
